The values you see were collected from patent US20210130436A1.

# system name: T1, CD28, endogenously expressed on Jurkat/IL2 reporter cells (human, UniProt P10747 19-220)
# T1 construct: whole, on cells
# experiment summary: flow cytometry, Jurkat/IL2 reporter cells (endogenous CD28)
measured endpoint: MFI at 33.3 nM (MFI)
Numbers only, in MFI.

Observe how each entry below is paired with its result.
| binder | measurement unit | MFI at 33.3 nM |
| --- | --- | --- |
| variant CD80 IgV-Fc E35D/M47V/N48K/V68M/A71G/L85M (Fc fusion, not shown: small tags and cut ends; a dimerising Fc or GST) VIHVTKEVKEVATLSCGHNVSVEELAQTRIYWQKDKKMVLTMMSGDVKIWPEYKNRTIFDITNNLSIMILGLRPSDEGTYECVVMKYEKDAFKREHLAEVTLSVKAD | MFI | 302 |
| variant CD80 IgV-Fc E35D/M47V/N48K/V68M/L85M (Fc fusion, not shown: small tags and cut ends; a dimerising Fc or GST) VIHVTKEVKEVATLSCGHNVSVEELAQTRIYWQKDKKMVLTMMSGDVKIWPEYKNRTIFDITNNLSIMILALRPSDEGTYECVVMKYEKDAFKREHLAEVTLSVKAD | MFI | 245 |
| variant CD80 IgV-Fc E35D/D46E/M47L/V68M/T79M/L85M (Fc fusion, not shown: small tags and cut ends; a dimerising Fc or GST) VIHVTKEVKEVATLSCGHNVSVEELAQTRIYWQKDKKMVLTMMSGELNIWPEYKNRTIFDITNNLSIMILALRPSDEGMYECVVMKYEKDAFKREHLAEVTLSVKAD | MFI | 403 |
| variant CD80 IgV-Fc E35D/M43I/M47L/V68M (Fc fusion, not shown: small tags and cut ends; a dimerising Fc or GST) VIHVTKEVKEVATLSCGHNVSVEELAQTRIYWQKDKKMVLTMISGDLNIWPEYKNRTIFDITNNLSIMILALRPSDEGTYECVVLKYEKDAFKREHLAEVTLSVKAD | MFI | 1520 |
| variant CD80 IgV-Fc E35D/T41S/D46E/M47I/V68M/K93R/E95V (Fc fusion, not shown: small tags and cut ends; a dimerising Fc or GST) VIHVTKEVKEVATLSCGHNVSVEELAQTRIYWQKDKKMVLSMMSGEINIWPEYKNRTIFDITNNLSIMILALRPSDEGTYECVVLKYEKDAFRRVHLAEVTLSVKAD | MFI | 476 |
| variant CD80 IgV-Fc E35D/M47V/V68M/L85M (Fc fusion, not shown: small tags and cut ends; a dimerising Fc or GST) VIHVTKEVKEVATLSCGHNVSVEELAQTRIYWQKDKKMVLTMMSGDVNIWPEYKNRTIFDITNNLSIMILALRPSDEGTYECVVMKYEKDAFKREHLAEVTLSVKAD | MFI | 201 |

Would you mind giving MFI at 33.3 nM for every binder in the list below?
1. variant CD80 IgV-Fc E35D/M47L/Y53F/V68M/A71G/K93R/E95V (Fc fusion, not shown: small tags and cut ends; a dimerising Fc or GST) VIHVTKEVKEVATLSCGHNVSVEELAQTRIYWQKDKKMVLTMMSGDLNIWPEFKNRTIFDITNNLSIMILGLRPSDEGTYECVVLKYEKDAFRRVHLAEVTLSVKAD
2. variant CD80 IgV-Fc H18Y/E35D/V68M/T79M/L85M (Fc fusion, not shown: small tags and cut ends; a dimerising Fc or GST) VIHVTKEVKEVATLSCGYNVSVEELAQTRIYWQKDKKMVLTMMSGDMNIWPEYKNRTIFDITNNLSIMILALRPSDEGMYECVVMKYEKDAFKREHLAEVTLSVKAD
3. variant CD80 IgV-Fc H18Y/V22D/E35D/M47V/N48K/V68M (Fc fusion, not shown: small tags and cut ends; a dimerising Fc or GST) VIHVTKEVKEVATLSCGYNVSDEELAQTRIYWQKDKKMVLTMMSGDVKIWPEYKNRTIFDITNNLSIMILALRPSDEGTYECVVLKYEKDAFKREHLAEVTLSVKAD

1: 383; 2: 1040; 3: 257
